- system name: human Nav1.5 (Homo sapiens)
- Construct: expressed in transfected cells; host or cells: CHO-K1 (T-REx System, ThermoFisher Scientific)
- Sequence (Q14524 1-2015 isoform Q14524-2): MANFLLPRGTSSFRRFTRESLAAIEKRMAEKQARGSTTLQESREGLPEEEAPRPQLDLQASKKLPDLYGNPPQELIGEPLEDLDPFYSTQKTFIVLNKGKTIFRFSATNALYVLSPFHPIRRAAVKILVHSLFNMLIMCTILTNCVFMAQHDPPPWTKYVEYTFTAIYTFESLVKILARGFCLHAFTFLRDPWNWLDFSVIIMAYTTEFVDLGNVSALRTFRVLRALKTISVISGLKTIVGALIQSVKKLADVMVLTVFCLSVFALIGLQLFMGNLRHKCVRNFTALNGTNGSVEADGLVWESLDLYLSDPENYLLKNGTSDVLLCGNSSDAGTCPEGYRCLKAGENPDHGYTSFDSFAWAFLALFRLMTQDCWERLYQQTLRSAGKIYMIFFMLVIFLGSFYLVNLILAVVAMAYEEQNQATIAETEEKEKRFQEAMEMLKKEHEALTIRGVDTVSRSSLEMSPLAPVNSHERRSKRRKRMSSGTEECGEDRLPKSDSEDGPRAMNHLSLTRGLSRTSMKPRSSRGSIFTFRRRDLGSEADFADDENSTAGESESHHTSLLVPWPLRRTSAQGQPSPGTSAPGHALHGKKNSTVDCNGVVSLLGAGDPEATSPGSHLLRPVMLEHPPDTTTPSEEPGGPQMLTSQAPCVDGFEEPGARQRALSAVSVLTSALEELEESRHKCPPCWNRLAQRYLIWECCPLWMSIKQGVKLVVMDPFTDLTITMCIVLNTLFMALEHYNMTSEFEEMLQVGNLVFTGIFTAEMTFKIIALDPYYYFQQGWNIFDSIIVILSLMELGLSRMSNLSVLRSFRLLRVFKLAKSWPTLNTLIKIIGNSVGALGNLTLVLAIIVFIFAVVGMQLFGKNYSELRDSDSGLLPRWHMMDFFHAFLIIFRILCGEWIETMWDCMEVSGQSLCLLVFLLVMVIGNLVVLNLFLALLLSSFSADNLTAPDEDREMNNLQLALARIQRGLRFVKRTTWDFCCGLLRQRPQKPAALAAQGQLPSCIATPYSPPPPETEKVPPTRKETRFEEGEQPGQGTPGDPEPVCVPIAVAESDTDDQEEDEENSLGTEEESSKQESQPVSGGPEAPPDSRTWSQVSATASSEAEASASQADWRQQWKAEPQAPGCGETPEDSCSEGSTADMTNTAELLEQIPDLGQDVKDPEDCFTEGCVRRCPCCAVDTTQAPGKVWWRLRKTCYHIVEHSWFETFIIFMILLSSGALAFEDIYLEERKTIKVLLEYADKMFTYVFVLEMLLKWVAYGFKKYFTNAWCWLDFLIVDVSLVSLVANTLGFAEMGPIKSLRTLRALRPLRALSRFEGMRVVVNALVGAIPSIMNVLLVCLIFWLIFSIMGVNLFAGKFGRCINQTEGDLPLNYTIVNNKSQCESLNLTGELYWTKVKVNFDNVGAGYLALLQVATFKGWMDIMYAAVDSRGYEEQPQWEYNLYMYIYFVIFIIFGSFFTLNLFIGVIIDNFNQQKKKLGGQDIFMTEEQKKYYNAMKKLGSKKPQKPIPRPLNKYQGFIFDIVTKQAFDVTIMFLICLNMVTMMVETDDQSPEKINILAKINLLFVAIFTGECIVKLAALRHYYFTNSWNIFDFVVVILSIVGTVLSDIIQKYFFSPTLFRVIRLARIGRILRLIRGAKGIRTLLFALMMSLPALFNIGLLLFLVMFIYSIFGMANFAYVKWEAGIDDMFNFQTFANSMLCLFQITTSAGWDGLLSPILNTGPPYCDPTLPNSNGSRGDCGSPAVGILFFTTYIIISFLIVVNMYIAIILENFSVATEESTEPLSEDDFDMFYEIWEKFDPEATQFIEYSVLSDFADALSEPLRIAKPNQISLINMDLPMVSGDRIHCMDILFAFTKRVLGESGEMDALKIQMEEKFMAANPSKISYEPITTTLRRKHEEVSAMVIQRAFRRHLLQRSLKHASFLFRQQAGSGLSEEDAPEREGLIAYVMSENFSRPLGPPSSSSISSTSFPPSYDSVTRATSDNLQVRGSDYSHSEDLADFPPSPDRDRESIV
- assay procedure: Amplification of Nav1.5-derived voltage-dependent sodium current (Nav1.5 current), cell line stably expressing human Nav1.5, automated patch clamp
- Format: cell-based
- particulars: 10 μmol/L compound; change of the area under the curve of Nav1.5 current (Test Result 1); read-out: Nav1.5 current amplification rate (%)
assay endpoint: activation at 10 µM (%)
Numbers only, in %.

Please review the entries below; each comes with its answer.
COc1cc(N2CCC(C)(C)CC2)nn(CC(=O)Nc2ccn3ccnc3c2)c1=O [Example 212]: 3
CC1CCN(c2ccc(=O)n(CC(=O)N3CCc4cc(C(F)(F)F)ccc43)n2)CC1 [Example 189]: -2
O=C(Cn1nc(N2CCC3(CCC3)C2)ccc1=O)Nc1ccc2c(c1)OCC2 [Example 172]: 4
COc1ccc2c(c1)CCN2C(=O)Cn1nc(N2CCC(C)CC2)ccc1=O [Example 183]: 0
O=C(Cn1nc(N2CCC3(CCC3)C2)ccc1=O)Nc1ccn2ccnc2c1 [Example 177]: 16

Could you tell me activation at 10 µM for each of these compounds? They are listed below.
1. O=C(Cn1nc(N2CCC3(CCCC3)C2)ccc1=O)Nc1cccc(-n2ccnc2)c1 [Example 123]
2. CC1CC=C(c2ccc(=O)n(CC(=O)Nc3ccn4ccnc4c3)n2)CC1 (centres unmarked) [Example 532]
3. O=C(Cn1nc(N2CCC3(CCC3)CC2)ccc1=O)Nc1ccn2cnnc2c1 [Example 176]

1: 30; 2: 47; 3: 2
